# CC50 per record follows
Test system: BHK cells
Method: Cytotoxicity (MTT) in BHK cells
Format: cell-based
Applied Conditions: BHK cells (for Dengue and West Nile virus), 3 days treatment; read-out: CC50
Endpoint Name: CC50 (µM)

* C[C@@H]1CCCCC1OCCCCCCN1C[C@H](O)[C@@H](O)[C@H](O)[C@H]1CO (stereo partly shown) [PBDNJ0804] | 65
* CC(C)[C@@H]1CC[C@@H](C)C[C@H]1OCCCCCCN1C[C@H](O)[C@@H](O)[C@H](O)[C@H]1CO [PBDNJ0801] | 80
* Cc1ccc(C)c(OCCCCCCN2C[C@H](O)[C@@H](O)[C@H](O)[C@H]2CO)c1 [PBDNJ0803] | 85

====

System: Dengue virus (DV) serotype 2, New Guinea C
Method: microbe, parasite or virus in culture
Assay type: cell-based
Applied Conditions: read-out: Dengue EC90
Endpoint Name: EC90 (nM)

* CC(=O)O.CC1CCC(OCCCCCCN2C[C@H](O)[C@@H](O)[C@H](O)[C@H]2CO)CC1 (stereo partly drawn) | 13000
* CC(C)[C@@H]1CC[C@@H](C)C[C@H]1OCCCCCCN1C[C@H](O)[C@@H](O)[C@H](O)[C@H]1CO | 200
* C[C@@H]1CCCCC1OCCCCCCN1C[C@H](O)[C@@H](O)[C@H](O)[C@H]1CO (stereo partly drawn) | 600
* Cc1ccc(C)c(OCCCCCCN2C[C@H](O)[C@@H](O)[C@H](O)[C@H]2CO)c1 | 600
* OC[C@@H]1[C@@H](O)[C@H](O)[C@@H](O)CN1CCCCCC1(O)CCCCC1 [OSL95-II, N-pentyl-(1-hydroxycyclohexyl)-DNJ, reference compound] | 8700

====

Test system: MDBK cells
Method: Cytotoxicity (MTT) in MDBK cells
Type: cell-based
CC50 for assorted molecules
Endpoint Name: CC50 (µM)

* CCCCCCCCCN1C[C@H](O)[C@@H](O)[C@H](O)[C@H]1CO [NNDNJ, N-nonyl-DNJ, reference compound] | 245
* Cc1ccc(C)c(OCCCCCCN2C[C@H](O)[C@@H](O)[C@H](O)[C@H]2CO)c1 | 485
* CC(C)[C@@H]1CC[C@@H](C)C[C@H]1OCCCCCCN1C[C@H](O)[C@@H](O)[C@H](O)[C@H]1CO | 235

====

Test system: Dengue virus (DV) serotype 2, New Guinea C
Method: microbe, parasite or virus in culture
Type: cell-based
Applied Conditions: Dengue virus, BHK, read-out: Dengue EC50
Endpoint Name: EC50 (µM)

* OC[C@H]1NC[C@H](O)[C@@H](O)[C@@H]1O [DNJ, deoxynojirimycin, reference compound] | 500

====

Tested on: vero cells
Endpoint Name: CC50 (µM)

• Cc1ccc(C)c(OCCCCCCN2C[C@H](O)[C@@H](O)[C@H](O)[C@H]2CO)c1 = 300
• CCCCCCCCCN1C[C@H](O)[C@@H](O)[C@H](O)[C@H]1CO [NNDNJ, N-nonyl-DNJ, reference compound] = 100
• C[C@@H]1CCCCC1OCCCCCCN1C[C@H](O)[C@@H](O)[C@H](O)[C@H]1CO (some centres unmarked) = 500

====

Reported CC50 values for the following compounds.
Method: Cytotoxicity (CC50) in the HCV infection test
Type: cell-based
Applied Conditions: Table 3, HCV infection test
Endpoint Name: CC50

- O[C@H]1[C@H](O)[C@@H](O)CN2CC[C@H](O)[C@H]12: > 500 µM
- CC(=O)O.CC1CCC(OCCCCCCN2C[C@H](O)[C@@H](O)[C@H](O)[C@H]2CO)CC1 (some centres unmarked): > 500 µM
- CCCC(=O)O[C@H]1CN2CC[C@H](O)[C@@H]2[C@@H](O)[C@@H]1O: > 500 µM
- OC[C@@H]1[C@@H](O)[C@H](O)[C@@H](O)CN1CCCCCC1(O)CCCCC1 [OSL95-II, N-pentyl-(1-hydroxycyclohexyl)-DNJ, reference compound]: > 500 µM
- CCCCCCCCCN1C[C@H](O)[C@@H](O)[C@H](O)[C@H]1CO [NNDNJ, N-nonyl-DNJ, reference compound]: 280 µM
